system: Escherichia coli TOP10; experiment: shrunken log2 fold change of peptide-encoding DNA abundance (4.5 h post-induction vs induction); higher = less antimicrobial activity (less host growth inhibition); settings: time post-induction: 4.5 h; library: site-saturation at positions 5, 18, 19, 20;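 also: peptides expressed intracellularly from a pBAD plasmid library in pooled LB shake-flask culture, induced with 0.3% L-arabinose, DNA abundance read by NGS, three biological replicates, DESeq2 with apeglm shrinkage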
Note to self: class labels come from recorded shrunken log2 fold change, ranges listed here: bucket 1 = under -0.1, bucket 2 = from -0.1 up to 0.2, bucket 3 = 0.2 and over

# count of solved cases: 5
SEQUENCE_STRING | MEASURED_TARGET | GROUP_LABEL
RRIRFRPPRLPRPRPRPELVPRP | Escherichia coli TOP10 | bucket 3
RRIRSRPPRLPRPRPRPVTMPRP | Escherichia coli TOP10 | bucket 1
RRIRRRPPRLPRPRPRPLFSPRP | Escherichia coli TOP10 | bucket 2
RRIRLRPPRLPRPRPRPPAGPRP | Escherichia coli TOP10 | bucket 3
RRIRCRPPRLPRPRPRPDVNPRP | Escherichia coli TOP10 | bucket 1

Problem: Which category does the recorded shrunken log2 fold change put RRIRHRPPRLPRPRPRPCLVPRP in?
Solution: bucket 3

Problem: Would you mind sorting RRIRYRPPRLPRPRPRPIEVPRP into the appropriate category?
Solution: bucket 1

Problem: Any idea which band RRIRTRPPRLPRPRPRPNLRPRP is in?
Solution: bucket 1

Problem: Please indicate the class for RRIRDRPPRLPRPRPRPRSIPRP based on its shrunken log2 fold change.
Solution: bucket 2

Problem: Pick a category. Item: RRIRWRPPRLPRPRPRPKDDPRP
Solution: bucket 3

Problem: Kindly identify the class of RRIRVRPPRLPRPRPRPWTQPRP .
Solution: bucket 1

Problem: # classify by shrunken log2 fold change band: RRIRKRPPRLPRPRPRPRTFPRP
Solution: bucket 3

Problem: # bin label for RRIRFRPPRLPRPRPRPTGTPRP
Solution: bucket 2

Problem: Lab note: sort RRIRLRPPRLPRPRPRPKPFPRP into the matching shrunken log2 fold change band.
Solution: bucket 3

Problem: Could you place RRIRPRPPRLPRPRPRPLHHPRP in its proper category? Many thanks.
Solution: bucket 2

Problem: Each sequence maps to one class by shrunken log2 fold change. Which class for RRIRDRPPRLPRPRPRPKVHPRP ?
Solution: bucket 1

meta.source: the supplement of paper PMC9112550
